# experiment_summary: Quantitative highthroughput screen to assess conditional lethalithy of NOMO1 cells grown in RPMI1640 with untreated serum (RPMI+s) (AID 1963876);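 further: 100% = DMSO wells and 0% = empty wells without cells; nearly all actives have a fitted effect of over 35% in size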
# assay_context: NOMO1 AML cells in RPMI+serum, CellTiter-Glo viability, 48 h; series mostly up to 45.8 µM
Results filed as inconclusive are left out. Active and inactive are the calls of the source. The call rests on the fitted dose curve; in most records, active means well fitted cell-killing curve with a large enough effect; inconclusive means small, poorly fitted or top-dose-only effect; inactive means flat fitted curve, though single readings scatter. Numbered stars: 1 amine (or outer) side, 2 acyl side, 3 side chain; on linkers, the order of the positions; unused ones are H or OH. Bridge positions count the residues as written; N and C are the ends. Square brackets hold non-standard residues; d marks the D form. Peptide text beside a SMILES is read from it. I, II: the chains in the order shown. Actinocin(9to1) = Cc1c2oc3c(C)ccc(C(=O)[*:1])c3nc-2c(C(=O)[*:2])c(N)c1=O; NMeV = CN[CH](C(=O)O)C(C)C; Sar = CNCC(=O)O
assay_metric: outcome

[[record]]
molecule = "N[C@@H](Cc1c[nH]c2ccc(O)cc12)C(=O)O"
assay_metric = "outcome"
measured_result = "inactive"

[[record]]
molecule = "Cc1c2oc3c(C)ccc(C(=O)NC4C(=O)NC(C(C)C)C(=O)N5CCCC5C(=O)N(C)CC(=O)N(C)C(C(C)C)C(=O)OC4C)c3nc-2c(C(=O)NC2C(=O)NC(C(C)C)C(=O)N3CCCC3C(=O)N(C)CC(=O)N(C)C(C(C)C)C(=O)OC2C)c(N)c1=O (configuration not stated) (I: TVP[Sar][NMeV] / II: TVP[Sar][NMeV]; ester I:1-I:C, II:1-II:C; linker I:N-II:N via Actinocin(9to1); configuration not given here)"
assay_metric = "outcome"
measured_result = "inactive"

[[record]]
molecule = "CC(C)NCC(O)COc1ccc(COCCOC(C)C)cc1 (configuration not stated)"
assay_metric = "outcome"
measured_result = "inactive"

[[record]]
molecule = "COc1nc(C)nc(Cl)c1NC1=NCCN1"
assay_metric = "outcome"
measured_result = "inactive"

[[record]]
molecule = "Nc1nc(N)nc(-c2cc(Cl)ccc2Cl)n1"
assay_metric = "outcome"
measured_result = "inactive"

[[record]]
molecule = "NC1CCC(Nc2nc(Nc3ccc(C(=O)N4CCCCC4)cc3)c3ncn(-c4cccc(F)c4)c3n2)CC1 (configuration not stated)"
assay_metric = "outcome"
measured_result = "inactive"

[[record]]
molecule = "COc1cc2nccc(Oc3ccc(NC(=O)Nc4cc(C)on4)c(Cl)c3)c2cc1OC"
assay_metric = "outcome"
measured_result = "inactive"


---

Each item that follows carries a reported activity (max response).
# experiment_summary: Cellular viability qHTS for adrenocortical cancer (ACC) cell line SW-13 (AID 1963989);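 further: cells grown in serum-free medium with ITS supplement; on the % scale 0 is the no-effect control and ±100 the full control effect; nearly all actives have a fitted effect of over 65% in size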
# assay_context: SW-13 ACC cells viability, CellTiter-Glo, 48 h; stronger effect = lower value
Results filed as inconclusive are left out.
assay_metric: activity (max response) (%)

[[record]]
compound = "Cc1c(NC(=O)c2cc(C(N)=O)nc3cc(F)ccc23)c(C(F)(F)F)nn1Cc1ccc(C#N)cc1"
assay_metric = "activity (max response)"
unit_annotation = "%"
measured_result = -7.79

[[record]]
compound = "CC(=O)O[C@H]1C[C@@H]2CC[C@H]3[C@H]4C[C@H]([N+]5(C)CCCCC5)[C@@H](OC(C)=O)[C@@]4(C)CC[C@@H]3[C@@]2(C)C[C@H]1[N+]1(C)CCCCC1"
assay_metric = "activity (max response)"
unit_annotation = "%"
measured_result = 7.56

[[record]]
compound = "CC1(c2ccccc2)OC(C(=O)O)=CC1=O (stereo not given)"
assay_metric = "activity (max response)"
unit_annotation = "%"
measured_result = -17.9

[[record]]
compound = "Cc1c(-c2ccccc2)oc2c(C(=O)OCCN3CCCCC3)cccc2c1=O"
assay_metric = "activity (max response)"
unit_annotation = "%"
measured_result = -7.2

[[record]]
compound = "C[C@]12CCC3[C@@H](CC[C@H]4NC(=O)C=C[C@]34C)[C@@H]1CC[C@@H]2C(=O)Nc1cc(C(F)(F)F)ccc1C(F)(F)F (stereo not given in full)"
assay_metric = "activity (max response)"
unit_annotation = "%"
measured_result = -0.361

[[record]]
compound = "CCn1ccc(NS(=O)(=O)c2ccc(N)cc2)nc1=O"
assay_metric = "activity (max response)"
unit_annotation = "%"
measured_result = 11.1

[[record]]
compound = "N#Cc1ccc(C2CCCc3cncn32)cc1 (stereo not given)"
assay_metric = "activity (max response)"
unit_annotation = "%"
measured_result = -11.9

[[record]]
compound = "O=C(O)[C@H](O)c1ccccc1"
assay_metric = "activity (max response)"
unit_annotation = "%"
measured_result = 6.97

[[record]]
compound = "O=C(O)CCCCC(=O)O"
assay_metric = "activity (max response)"
unit_annotation = "%"
measured_result = 10.5

[[record]]
compound = "CN(C)CCC(c1ccccc1)c1ccccn1 (stereo not given)"
assay_metric = "activity (max response)"
unit_annotation = "%"
measured_result = 13.1

[[record]]
compound = "CC(=O)OC[C@H]1O[C@@H](OC(C)=O)[C@H](OC(C)=O)[C@@H]1OC(C)=O"
assay_metric = "activity (max response)"
unit_annotation = "%"
measured_result = 10.4

[[record]]
compound = "CCS(=O)(=O)N1CCC(C(C)n2c(C)c(C(=O)NCc3c(OC)cc(C)[nH]c3=O)c3ccccc32)CC1 (stereo not given)"
assay_metric = "activity (max response)"
unit_annotation = "%"
measured_result = -8.74

[[record]]
compound = "CCC(C)(CN(C)C)OC(=O)c1ccccc1 (stereo not given)"
assay_metric = "activity (max response)"
unit_annotation = "%"
measured_result = -1.44

[[record]]
compound = "CCc1c(C)[nH]c2c1C(=O)C(CN1CCOCC1)CC2 (stereo not given)"
assay_metric = "activity (max response)"
unit_annotation = "%"
measured_result = 7.75

[[record]]
compound = "Cc1cccc(-c2[nH]ncc2-c2ccc(F)c(-c3cnn(CCO)c3)c2)n1"
assay_metric = "activity (max response)"
unit_annotation = "%"
measured_result = -6.75

[[record]]
compound = "O=C1NC(=O)/C(=C\\c2ccc(-c3ccc(F)cc3)o2)S1"
assay_metric = "activity (max response)"
unit_annotation = "%"
measured_result = 3.49

[[record]]
compound = "C[C@H](CCC(=O)O)[C@H]1CC[C@H]2[C@@H]3C(=O)C[C@@H]4CC(=O)CC[C@]4(C)[C@H]3CC(=O)[C@]12C"
assay_metric = "activity (max response)"
unit_annotation = "%"
measured_result = 15.5

[[record]]
compound = "C[C@H]1CN(C[C@H](Cc2ccccc2)C(=O)NCC(=O)O)CC[C@@]1(C)c1cccc(O)c1"
assay_metric = "activity (max response)"
unit_annotation = "%"
measured_result = 8.76

[[record]]
compound = "O=C(CCN1CCN2CCCC2C1)N1c2ccccc2Sc2ccc(Cl)cc21 (stereo not given)"
assay_metric = "activity (max response)"
unit_annotation = "%"
measured_result = -13.8

[[record]]
compound = "CCCC1OC2C[C@@H]3[C@H]4CCC5=CC(=O)C=C[C@]5(C)[C@H]4C(O)C[C@]3(C)[C@]2(C(=O)CO)O1 (stereo not given in full)"
assay_metric = "activity (max response)"
unit_annotation = "%"
measured_result = -12.3


---

# experiment_summary: Quantitative highthroughput screen to assess conditional lethalithy of P12 Ichikawa cells grown in RPMI1640 with dialyzed fetal bovine serum (RPMI+ds) (AID 1963880); further: nearly all actives have a fitted effect of over 35% in size;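 on viability: 100% = DMSO wells and 0% = empty wells on each plate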
# assay_context: ATP luminescence, 48 h; P12-Ichikawa viability; series mostly up to 45.8 µM
Results filed as inconclusive are left out. Calls of active or inactive are those of the source. The call rests on the fitted dose curve; in most records, active means well fitted cell-killing curve with a large enough effect; inconclusive means small, poorly fitted or top-dose-only effect; inactive means flat fitted curve, though single readings scatter.
Outcome codes: True for active, False for inactive

[[record]]
chemical_structure = "Cc1cn(-c2cc(NC(=O)c3ccc(C)c(Nc4nccc(-c5cccnc5)n4)c3)cc(C(F)(F)F)c2)cn1"
cat = "True"

[[record]]
chemical_structure = "CCCCCCCCCCCCCCCCCCCCCCO"
cat = "False"

[[record]]
chemical_structure = "NCC(=O)Nc1ccc(-n2nc(C(F)(F)F)cc2-c2ccc3c(ccc4ccccc43)c2)cc1"
cat = "True"

[[record]]
chemical_structure = "N#CC1(c2ccc(NC(=O)c3cccnc3NCc3ccncc3)cc2)CCCC1"
cat = "False"

[[record]]
chemical_structure = "O=c1[nH]nc(OCCCc2ccc(Cl)cc2)c(NCc2cccnc2)c1Br"
cat = "True"

[[record]]
chemical_structure = "CC=C(C(=CC)c1ccc(O)cc1)c1ccc(O)cc1"
cat = "False"

[[record]]
chemical_structure = "Nc1ncnc2c1ncn2[C@@H]1O[C@@H](CO)[C@H](O)[C@H]1O"
cat = "False"

[[record]]
chemical_structure = "CON=C(C(=O)N[C@@H]1C(=O)N2C(C(=O)O)=C(CSC(=O)c3ccco3)CS[C@H]12)c1csc(N)n1"
cat = "False"

[[record]]
chemical_structure = "O=C(c1ccc(Nc2nccc(-c3cc4ccccc4s3)n2)cc1)N1CCC(N2CCCC2)CC1"
cat = "True"

[[record]]
chemical_structure = "Cc1ccc(C)c(OCCCC(C)(C)C(=O)O)c1"
cat = "False"

[[record]]
chemical_structure = "O=C(O)CCCc1c[nH]c2ccccc12"
cat = "False"


Ref: PubChem BioAssay (NCATS)
